Test system: Staphylococcus aureus (methicillin-resistant and sensitive clinical isolates; ATCC29213)
Experiment: MIC by micro broth dilution (CLSI), Staphylococcus aureus
Format: cell-based
Details: Standard strain ATCC29213, read-out: MIC
MEASURED_PARAMETER: MIC (µg/mL)

> print(dat)
                                   compound  result.value
1  O=[N+]([O-])c1cc(F)c2c(N3CCC(C(F)(F)F)CC3)ccnc2c1O [Example 70]             4
2  Cc1cnc2c(O)c([N+](=O)[O-])cc(Cl)c2c1 [Example 83, 5-chloro-3-methyl-7-nitroquinolin-8-ol]             4
3  O=[N+]([O-])c1cc(Cl)c2c(N3CCCC(F)C3)ccnc2c1O (stereo not drawn) [Example 119]           128
4  Cl.O=[N+]([O-])c1cc(Cl)c2c(OCc3ccccc3)ccnc2c1O [Example 67]             2
5  CN1CCN(c2ccnc3c(O)c([N+](=O)[O-])ccc23)CC1 [Example 18]           128
6  CS(=O)(=O)N1CCN(c2ccnc3c(O)c([N+](=O)[O-])cc(Cl)c23)CC1 [Example 48]            64
